Could you please report measured T½ Max (seconds), coagulation of human plasma for the items listed next?
# target-under-test: Innovin, lyophilized recombinant human tissue factor combined with phospholipids (human, UniProt P13726 33-295, limits assumed); note: test concentration or dose not given here
# test-description: cell-based or functional assay
Please answer using a numeric value trailed by its unit.

### Prompt Tell me its T½ Max (seconds), coagulation of human plasma given M61 (antibody, V domains shown, complete MAb; FR4 is its own entry; also called H22/L5) VH: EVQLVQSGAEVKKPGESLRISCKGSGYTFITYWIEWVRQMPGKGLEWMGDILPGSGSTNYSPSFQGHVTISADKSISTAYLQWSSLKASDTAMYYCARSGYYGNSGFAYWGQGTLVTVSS VL: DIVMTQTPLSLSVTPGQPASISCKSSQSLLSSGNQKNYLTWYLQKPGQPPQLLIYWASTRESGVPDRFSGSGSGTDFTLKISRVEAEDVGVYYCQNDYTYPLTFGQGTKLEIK as the entry.
### Response 186 s

### Prompt Tell me its T½ Max (seconds), coagulation of human plasma given M16 (antibody, V domains shown, complete MAb; FR4 is its own entry; also called H16/L2) VH: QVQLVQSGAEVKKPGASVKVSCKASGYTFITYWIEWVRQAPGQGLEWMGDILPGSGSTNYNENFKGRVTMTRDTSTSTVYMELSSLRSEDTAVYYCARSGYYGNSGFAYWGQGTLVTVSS VL: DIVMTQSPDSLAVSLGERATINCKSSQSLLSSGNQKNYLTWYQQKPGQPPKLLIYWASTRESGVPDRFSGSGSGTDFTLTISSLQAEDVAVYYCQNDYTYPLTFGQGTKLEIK as the entry.
### Response 198 s

### Prompt Tell me its T½ Max (seconds), coagulation of human plasma given M1590 (antibody, V domains shown, complete MAb; FR4 is its own entry; also called H117/L3) VH: EVQLVQSGAEVKKPGESLRISCKGSGYTFLPYWIEWVRQMPGKGLEWMGDIIPGTGFTNYSPSFQGHVTISADKSISTAYLQWSSLKASDTAMYYCARSGYYGNSGFAYWGQGTLVTVSS VL: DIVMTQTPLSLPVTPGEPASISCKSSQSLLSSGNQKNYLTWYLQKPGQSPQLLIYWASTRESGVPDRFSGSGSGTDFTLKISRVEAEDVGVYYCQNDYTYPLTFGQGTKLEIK as the entry.
### Response 180 s
